Data provenance: patent US11629123B2

- Test system: colorectal cancer cell line HCT116
- methodSummary: cells
- Format: cell-based
- testContext: Table 2; SRB, concentration for 50% viability; read-out: HCT116-LC50
assayMetric: CC50
Respond with the figure and its unit, in that order.

Ask: Dear colleague, I am looking for the recorded CC50 of the following compound: O=C(NCCSSCCNC(=O)/C(Cc1ccc(O)c(Br)c1)=N/O)/C(Cc1ccc(O)c(Br)c1)=N/O [Psammaplin A]
Result: 610 nM

====

- Test system: colorectal cancer cell line HCT116
- methodSummary: cells
- Type: cell-based
- testContext: Table 3; SRB, concentration for 50% viability; read-out: HCT116-LC50
assayMetric: CC50 (nM)
Enter your answer as a number in nM; do not include the unit.

Ask: For the compound shown here, `O=C(NCCSSCCNC(=O)/C(Cc1ccc(O)c(Br)c1)=N/O)/C(Cc1ccc(O)c(Br)c1)=N/O` , give the reported CC50.
Result: 610
